Data origin, for the record: patent US20230295310A1

Quick reference for Jurkat Cell Binding (FOI) among some binders
target: T1, human CD3 expressed on cells (human, UniProt P07766 23-207; P04234 22-171; P09693 23-182); assay: flow cytometry, 25 nM
T1 construct: whole, on cells; CD3 complex on Jurkat cells and on human primary T cells
T1 sequence (P07766 23-207, chain 1 of 3): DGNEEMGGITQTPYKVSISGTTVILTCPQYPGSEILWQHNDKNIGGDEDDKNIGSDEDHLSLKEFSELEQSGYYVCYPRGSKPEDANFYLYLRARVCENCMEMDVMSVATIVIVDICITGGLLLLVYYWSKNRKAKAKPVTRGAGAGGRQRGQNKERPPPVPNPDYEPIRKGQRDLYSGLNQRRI
T1 sequence (P04234 22-171, chain 2 of 3): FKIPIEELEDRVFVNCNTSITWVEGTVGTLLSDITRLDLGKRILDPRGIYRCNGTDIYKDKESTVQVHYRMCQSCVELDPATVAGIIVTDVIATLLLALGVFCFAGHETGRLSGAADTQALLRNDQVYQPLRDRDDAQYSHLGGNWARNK
T1 sequence (P09693 23-182, chain 3 of 3): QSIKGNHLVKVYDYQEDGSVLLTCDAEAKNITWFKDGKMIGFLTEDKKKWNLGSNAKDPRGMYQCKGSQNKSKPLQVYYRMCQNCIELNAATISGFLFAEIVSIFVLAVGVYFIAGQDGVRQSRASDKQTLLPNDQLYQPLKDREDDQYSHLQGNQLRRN
API: value field is a number in FOI; no unit string.

Q: Value lookup for Jurkat Cell Binding (FOI); key = mAb 129 (antibody, V domains shown) VH: EVQLVESGGDLVKTGGSLRLSCVASGFSFKKAWMNWVRQAPGKGLEWVGRIKRNTDGGATDYAAPVKDRFTLSRDDSKNTLYLQMNSLKTEDTAVYYCTTLDSSSWYVGYYYMDVWGKGTTVTVSS VL: DIHMTQSPSSVSASLGDRVTFTCRASQDINNWLAWYQQKPGKAPRLLIYTASSLQSGVPSRFSGSGSGTDFTLTISSLQPDDFATYYCQQAHSLPITFGQGTRLGIE
Result: 157

Q: Cool, now mAb 95 (antibody, V domains shown) VH: QAHLVESGGGVVQPGRSLRLSCSASGFTFSGYGMHWVRQAPGKGLEWVALIYFDGRNKYYADSVKGRFTISRDNSKNTLYLQMNSLRAEDTAVYYCARGGGYNWFDPWGQGTLVTVSS VL: DIQMTQSPSSLSASVGDRVTITCRASQSINNYLSWYQQKPGKAPKLLIYLASNLQSGVPSRFSGSGSGTDFTLTISSLQPEDFATYYCQLSYRSPFTFGPGTKVDVK
Result: 177

Q: Cool, now mAb 106 (antibody, V domains shown) VH: QVQLVESGGGVVQPGRSLRLSCAASGFTFRSYGMHWVRQAPGKGLEWVAIIWYNGNKKDYVDSVKGRFTISRDNSKNTLYLQMNSLRAEDTALYYCARGPGYNWFDPWGQGTLVTVSS VL: DIQMTQSPPSLSASVGDRVTITCRASQRISSYLNWYQQKPGKAPKLLIYAASSLQSGVPSRFSGSGSGTDFTLTISSLQPEDFATYYCQQSDSFPLTFGGGTKVEII
Result: 186
